B1: CLINT1 (parent)
chain: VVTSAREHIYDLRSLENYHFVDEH

variants of: B1; assay: protein stability index of a GFP-peptide fusion (GPS, HEK-293T) (PSI 1-6); higher = more stable; details: c terminus: a fixed tail appended;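 note: lentivirally expressed fusions sorted by FACS into six bins by GFP to DsRed ratio, PSI derived from sequencing read proportions per bin multiplied by bin number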
outcome-measure: protein stability index

>>> assay_value("R6S")
3.93
>>> assay_value("E23F")
2.51
>>> assay_value("V1K")
3.45
>>> assay_value("R13A")
3.55
>>> assay_value("Y18P")
3.71
>>> assay_value("E16P")
3.32
>>> assay_value("H19G")
3.16
>>> assay_value("V1M")
2.88
>>> assay_value("I9Q")
4.09
>>> assay_value("H24T")
3.11
>>> assay_value("D11Y")
2.02
>>> assay_value("F20D")
4.77
>>> assay_value("L15K")
3.36
>>> assay_value("I9S")
4.07
>>> assay_value("D11P")
2.56
>>> assay_value("H24N")
3.5
>>> assay_value("E23M")
1.9
>>> assay_value("R13P")
3.58
>>> assay_value("I9L")
2.83
>>> assay_value("V1Y")
1.5
>>> assay_value("F20L")
4.22
>>> assay_value("A5V")
2.24
